- System: SW620
- EXPERIMENT_NOTES: Camptothecin drug cellular activity test (MTS cell proliferation)
- Assay type: cell-based, human
- ASSAY_CONDITIONS: Homo sapiens, SW-620, 72 h, read-out: Cell Viability, SW620
I'd be grateful if you could share measured IC50 for these entries.
Quick reminder: number only, in nM, skip the unit.

Prompt line: For the compound shown here, `CC[C@@]1(O)C(=O)OCc2c1cc1n(c2=O)Cc2c-1nc1cc(F)c(C)c3c1c2[C@@H](NC(=O)[C@H](O)c1cc(F)cc(F)c1)CC3` , give the reported IC50.
Response line: 2.15

Prompt line: Likewise for CC[C@@]1(O)C(=O)OCc2c1cc1n(c2=O)Cc2c-1nc1cc(F)c(C)c3c1c2[C@@H](NC(=O)C(O)c1ccccc1)CC3 (some centres unmarked) ?
Response line: 11.9

Prompt line: Likewise for `CC[C@@]1(O)C(=O)OCc2c1cc1n(c2=O)Cc2c-1nc1cc(F)c(C)c3c1c2[C@@H](NC(=O)C1(O)CCCC1)CC3` ?
Response line: 1.5

Prompt line: Likewise for `CC[C@@]1(O)C(=O)OCc2c1cc1n(c2=O)Cc2c-1nc1cc(F)c(C)c3c1c2[C@@H](NC(=O)[C@H](O)c1ccc2c(c1)OCO2)CC3` ?
Response line: 2.25

Prompt line: Likewise for `CC[C@H](O)C(=O)N[C@H]1CCc2c(C)c(F)cc3nc4c(c1c23)Cn1c-4cc2c(c1=O)COC(=O)[C@]2(O)CC` ?
Response line: 17.5

Source of measurements: patent US20220378928A1
